System: A549/ATCC NSCLC
Experiment: NCI-60 one-dose screen, 48 h
Conditions: 10 µM unless noted
About 83,000 compounds went through this panel and 20% of them were active in at least one assay; those are over-represented in the sample as a whole. Active and inactive are the calls of the source. The calls were made as follows: active = growth percent below 10; inactive = the rest.
# valid calls are class 1 = active, class 0 = inactive; nothing else

INPUT: Check the results log: what was the call for Cc1cccc2ccccc12 ?
OUTPUT: class 0

INPUT: Each compound tested received a call. Report the one for O=C(O)Cc1cccc2ccccc12 .
OUTPUT: class 0

INPUT: Tell me the assay call for C=COC(=O)CCOCC(CC)CCCC (stereo unspecified) please.
OUTPUT: class 0

INPUT: Assay outcome for CC(=O)CSc1ncnc2nc[nH]c12 : what was it?
OUTPUT: class 0

INPUT: Query: recorded result category for O=Cc1ccc(O)c(O)c1 in this test
OUTPUT: class 0

INPUT: Which result was noted for this compound in the test: CC(=O)NC(CCc1ccc(Cl)c(Cl)c1)c1cccc(O)c(=O)c1 (stereo unspecified)
OUTPUT: class 1

INPUT: I'd appreciate the recorded outcome for COC(c1ccc2c(c1)OCO2)C(C)Br (stereo unspecified) from this test.
OUTPUT: class 0

INPUT: Field: outcome | Entry: CN(CCCN(C)CCC1CCCCC1)CCC1CCCCC1
OUTPUT: class 0

INPUT: Call for entry O=[N+]([O-])c1ccc2[nH]c(=S)n(/C=C(/c3ccc(Cl)cc3Cl)S(=O)(=O)Cc3ccc(Cl)cc3Cl)c2c1 :
OUTPUT: class 0

INPUT: Hi team, can someone confirm the assay call for CN(C(=S)S(=O)(=O)C12CC3CC(CC(C3)C1)C2)c1ccccc1 ?
OUTPUT: class 0

INPUT: Look up the recorded call for S=CN1CCCCC1 in this test.
OUTPUT: class 0

INPUT: Each compound tested received a call. Report the one for CC1(C)OC(=O)CC1=O .
OUTPUT: class 0

INPUT: Test call for this compound, please: C=CCOc1ccc(Cl)cc1Cl
OUTPUT: class 0

INPUT: In this assay, the call recorded for Clc1ccc(-c2noc(/C=C\c3ccccc3)n2)cc1 was what?
OUTPUT: class 0

INPUT: Each compound tested received a call. Report the one for CSCCC(NC(=O)C(Cl)Cl)C(=O)O (stereo unspecified) .
OUTPUT: class 0

INPUT: Please indicate how the test categorized O=CNCCc1ccccc1 .
OUTPUT: class 0

INPUT: In this assay, the call recorded for CCCCCCCCCCCCCCCCCCSC(=N)N was what?
OUTPUT: class 0

INPUT: What outcome does the record of this test show for Cc1cccc(C)c1NC(=S)/N=C\c1c(O)[nH]c(=O)[nH]c1=O ?
OUTPUT: class 0

INPUT: I would be grateful if you could indicate the recorded call for O=C(O)c1cccc(-n2ncc(Cl)c(Cl)c2=O)c1 .
OUTPUT: class 0

INPUT: Lab log entry: CCOc1ccc(C(=O)NCC(C)C)cc1 — outcome as called in the assay?
OUTPUT: class 0

INPUT: State the result this test recorded for COc1ccc(-c2csc(NC(=O)Nc3nc(-c4ccc(OC)cc4)cs3)n2)cc1 .
OUTPUT: class 0
